Entry source: patent US20100279930A1

target: human Y4 receptor (human, UniProt P50391 1-375); assay: 125I-PP displacement
Sequence (P50391 whole entry): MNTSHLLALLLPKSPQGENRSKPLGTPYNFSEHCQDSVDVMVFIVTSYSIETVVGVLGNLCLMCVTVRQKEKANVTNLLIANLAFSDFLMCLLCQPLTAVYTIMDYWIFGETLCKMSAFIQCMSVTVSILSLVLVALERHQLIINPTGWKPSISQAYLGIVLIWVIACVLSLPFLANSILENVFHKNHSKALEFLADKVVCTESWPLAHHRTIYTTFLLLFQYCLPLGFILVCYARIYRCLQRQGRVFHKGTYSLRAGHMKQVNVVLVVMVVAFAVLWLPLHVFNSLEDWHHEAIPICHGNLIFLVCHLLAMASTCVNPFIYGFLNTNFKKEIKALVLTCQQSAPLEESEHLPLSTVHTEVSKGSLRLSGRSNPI
# IC50 binned as class 1 (below 0.1 nM), class 2 (0.1 nM to below 0.3 nM), class 3 (0.3 nM or more)

# binder, answer_label
data = [
    ("PAPLEPTYPGDDATPQQMARYAAALRRYINILTRPRY [7269]", "class 2"),
    ("PAPLEPKYPGDNATPEQMARYAAALRRYINMLTRPRY [7248]", "class 2"),
    ("PAPLEPTYPGDDATPQQMARYAAELRRYINILTRPRY [7271]", "class 2"),
    ("PLEPFYPGDDATPQQMAQYAAALRRYINMLTRPRY [4055287]", "class 3"),
    ("APLEPVYPGDNATPEQMAQYAADLRRYINLLTRPRY [4055399]", "class 2"),
    ("APLEPEYPGDDATPEQMAEYAADLRRYINMLTRPRY [4055407]", "class 2"),
]

Shift focus to the following entry.
Which bin, given its IC50, does AAPLEPTYPGDDATPQQMARYAAELRRYINFLTRPRY [7274] occupy?
class 2
